biological target: human FXR (NR1H4) (Homo sapiens (Human), UniProt Q96RI1); assay: Human FXR (NR1H4) Assay (Gal4 promoter driven luciferase reporter, Indigo Bioscience kit IB00601); format: cell-based; details: efficacy normalized to CDCA set as 100%
Sequence (Q96RI1 whole entry, the tested form may be a part): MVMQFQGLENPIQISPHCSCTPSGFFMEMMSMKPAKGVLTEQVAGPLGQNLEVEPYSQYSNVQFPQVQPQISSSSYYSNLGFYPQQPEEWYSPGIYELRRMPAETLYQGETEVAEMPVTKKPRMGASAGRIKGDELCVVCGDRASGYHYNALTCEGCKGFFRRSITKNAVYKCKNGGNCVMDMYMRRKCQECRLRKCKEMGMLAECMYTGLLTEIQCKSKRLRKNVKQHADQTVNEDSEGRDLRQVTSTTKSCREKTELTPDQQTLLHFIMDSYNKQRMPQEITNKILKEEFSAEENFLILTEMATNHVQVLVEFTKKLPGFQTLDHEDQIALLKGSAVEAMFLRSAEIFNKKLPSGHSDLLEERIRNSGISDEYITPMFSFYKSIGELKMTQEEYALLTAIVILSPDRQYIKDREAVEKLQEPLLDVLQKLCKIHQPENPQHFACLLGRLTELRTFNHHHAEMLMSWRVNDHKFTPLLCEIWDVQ
Examples of compounds with documented Efficacy (%) follow.

COMPOUND	Efficacy (%)
CC[C@H]1[C@@H](O)[C@@H]2[C@H](CC[C@]3(C)[C@@H]([C@H](C)CCNC(=O)NS(=O)(=O)N4C[C@@H](C)O[C@@H](C)C4)CC[C@@H]23)[C@@]2(C)CC[C@@H](O)C[C@@H]12 [Example 75]	323
CC[C@H]1[C@@H](O)[C@@H]2[C@H](CC[C@]3(C)[C@@H]([C@H](C)CCCNC(=O)NS(=O)(=O)c4ccc(OC(F)(F)F)cc4)CC[C@@H]23)[C@@]2(C)CC[C@@H](O)C[C@@H]12 [Example 18]	319
CC[C@H]1[C@@H](O)[C@@H]2[C@H](CC[C@]3(C)[C@@H]([C@H](C)CCNC(=O)NS(=O)(=O)c4ccc5c(c4)OCO5)CC[C@@H]23)[C@@]2(C)CC[C@@H](O)C[C@@H]12 [Example 23]	488
CC[C@H]1[C@@H](O)[C@@H]2[C@H](CC[C@]3(C)[C@@H]([C@H](C)CCNC(=O)NS(C)(=O)=O)CC[C@@H]23)[C@@]2(C)CC[C@@H](O)C[C@@H]12 [Example 6]	269
CC[C@H]1[C@@H](O)[C@@H]2[C@H](CC[C@]3(C)[C@@H]([C@H](C)CCNC(=O)NS(=O)(=O)N4CCC(C(C)(C)C)CC4)CC[C@@H]23)[C@@]2(C)CC[C@@H](O)C[C@@H]12 [Example 67]	351
CC[C@H]1[C@@H](O)[C@@H]2[C@H](CC[C@]3(C)[C@@H]([C@H](C)CCNC(=O)NS(=O)(=O)c4cccc(OC(F)(F)F)c4)CC[C@@H]23)[C@@]2(C)CC[C@@H](O)C[C@@H]12 [Example 50]	309
CC[C@H]1[C@@H](O)[C@@H]2[C@H](CC[C@]3(C)[C@@H]([C@H](C)CCNC(=O)NS(=O)(=O)c4ccc(C(C)(C)C)s4)CC[C@@H]23)[C@@]2(C)CC[C@@H](O)C[C@@H]12 [Example 111]	314
CC[C@H]1[C@@H](O)[C@@H]2[C@H](CC[C@]3(C)[C@@H]([C@H](C)CNC(=O)NS(=O)(=O)c4ccc5c(c4)OCO5)CC[C@@H]23)[C@@]2(C)CC[C@@H](O)C[C@@H]12 [Example 117]	305
CC[C@H]1[C@@H](O)[C@@H]2[C@H](CC[C@]3(C)[C@@H]([C@H](C)CCNC(=O)NS(=O)(=O)c4ccc(-c5ccccc5)cc4)CC[C@@H]23)[C@@]2(C)CC[C@@H](O)C[C@@H]12 [Example 54]	273
CC[C@H]1[C@@H](O)[C@@H]2[C@H](CC[C@]3(C)[C@@H]([C@H](C)CCNC(=O)NS(=O)(=O)c4ccc(OC)cc4)CC[C@@H]23)[C@@]2(C)CC[C@@H](O)C[C@@H]12 [Example 15]	337
CC[C@H]1[C@@H](O)[C@@H]2[C@H](CC[C@]3(C)[C@@H]([C@H](C)CCNC(=O)NS(=O)(=O)c4ccccc4)CC[C@@H]23)[C@@]2(C)CC[C@@H](O)C[C@@H]12 [Example 4]	342
CC[C@H]1[C@@H](O)[C@@H]2[C@H](CC[C@]3(C)[C@@H]([C@H](C)CCNC(=O)NS(=O)(=O)c4ccc(-c5ccno5)cc4C)CC[C@@H]23)[C@@]2(C)CC[C@@H](O)C[C@@H]12 [Example 72]	384

###

molecular target: human FXR (NR1H4) (Homo sapiens (Human), UniProt Q96RI1); assay: Human FXR (NR1H4) Assay (Gal4 promoter driven luciferase reporter, Indigo Bioscience kit IB00601); type: cell-based; settings: efficacy normalized to CDCA set as 100%
Given measured Efficacy (%), output criterion met if it is greater than or equal to 300% and criterion not met if not.

COMPOUND	TEST SYSTEM	LABEL CLASS
CC[C@H]1[C@@H](O)[C@@H]2[C@H](CC[C@]3(C)[C@@H]([C@H](C)CCNC(=O)NS(=O)(=O)c4cccc(C(C)(C)C)c4)CC[C@@H]23)[C@@]2(C)CC[C@@H](O)C[C@@H]12 [Example 53]	human FXR (NR1H4) (Homo sapiens (Human), UniProt Q96RI1)	criterion not met
CC[C@H]1[C@@H](O)[C@@H]2[C@H](CC[C@]3(C)[C@@H]([C@H](C)CNS(=O)(=O)CCC(=O)O)CC[C@@H]23)[C@@]2(C)CC[C@@H](O)C[C@@H]12 [Example 140]	human FXR (NR1H4) (Homo sapiens (Human), UniProt Q96RI1)	criterion not met
CC[C@H]1[C@@H](O)[C@@H]2[C@H](CC[C@]3(C)[C@@H]([C@H](C)CNC(=O)NS(=O)(=O)C4CC4)CC[C@@H]23)[C@@]2(C)CC[C@@H](O)C[C@@H]12 [Example 30]	human FXR (NR1H4) (Homo sapiens (Human), UniProt Q96RI1)	criterion not met
CC[C@H]1[C@@H](O)[C@@H]2[C@H](CC[C@]3(C)[C@@H]([C@H](C)CCNC(=O)NS(=O)(=O)C4CC4)CC[C@@H]23)[C@@]2(C)CC[C@@H](O)C[C@@H]12 [Example 5]	human FXR (NR1H4) (Homo sapiens (Human), UniProt Q96RI1)	criterion met
CC[C@H]1[C@@H](O)[C@@H]2[C@H](CC[C@]3(C)[C@@H]([C@H](C)CCNC(=O)NS(=O)(=O)c4ccc(C(=O)OC)cc4)CC[C@@H]23)[C@@]2(C)CC[C@@H](O)C[C@@H]12 [Example 123]	human FXR (NR1H4) (Homo sapiens (Human), UniProt Q96RI1)	criterion not met
CC[C@H]1[C@@H](O)[C@@H]2[C@H](CC[C@]3(C)[C@@H]([C@H](C)CNC(=O)NS(=O)(=O)c4cccc(N5CCCCC5)c4)CC[C@@H]23)[C@@]2(C)CC[C@@H](O)C[C@@H]12 [Example 121]	human FXR (NR1H4) (Homo sapiens (Human), UniProt Q96RI1)	criterion not met

###

target: human FXR (NR1H4) (Homo sapiens (Human), UniProt Q96RI1); assay: Human FXR (NR1H4) Assay (Gal4 promoter driven luciferase reporter, Indigo Bioscience kit IB00601); assay type: cell-based; conditions: efficacy normalized to CDCA set as 100%
Examples of compounds with documented Efficacy (%) follow.

COMPOUND	READOUT UNIT	Efficacy (%)
CC[C@H]1[C@@H](O)[C@@H]2[C@H](CC[C@]3(C)[C@@H]([C@H](C)CNC(=O)NS(=O)(=O)c4ccc5ccccc5c4)CC[C@@H]23)[C@@]2(C)CC[C@@H](O)C[C@@H]12 [Example 32]	%	309
CC[C@H]1[C@@H](O)[C@@H]2[C@H](CC[C@]3(C)[C@@H]([C@H](C)CCNC(=O)NS(=O)(=O)NC)CC[C@@H]23)[C@@]2(C)CC[C@@H](OC(=O)C(F)(F)F)C[C@@H]12 [Example 126]	%	238
CC[C@H]1[C@@H](O)[C@@H]2[C@H](CC[C@]3(C)[C@@H]([C@H](C)CCNC(=O)NS(=O)(=O)N4CC(C)C(C)C4)CC[C@@H]23)[C@@]2(C)CC[C@@H](O)C[C@@H]12 (stereo partly drawn) [Example 99]	%	266
